test system: human cancer cell line of prostate carcinoma LNCaP; experiment: In vitro cytotoxicity, MTT micro-titration analysis; type: cell-based; details: LNCaP cells, 24 h incubation with complex, read-out: inhibition concentrations IC50

molecule: N.N.[Cl][Pt][Cl] [cisplatin, reference compound]
IC50 (µM): 3.8
